tested on: NCI-H460 lung; experiment: NCI tumour cell line growth inhibition, 48 h
measurement-kind: TGI

# count of solved cases: 5
[
  {
    "compound": "CN(C)c1ccc(C(N)=O)cn1",
    "tested-system": "NCI-H460 lung",
    "TGI": "> 100 µM"
  },
  {
    "compound": "Cn1c(COC(=O)NC2CCCCC2)c(COC(=O)NC2CCCCC2)c2ccc3cc(Cl)c(Cl)cc3c21",
    "tested-system": "NCI-H460 lung",
    "TGI": "17.3 µM"
  },
  {
    "compound": "COc1cc(Oc2c(O)c(C)c(OC)c(C(C)=O)c2O)c(C(C)=O)c(O)c1C",
    "tested-system": "NCI-H460 lung",
    "TGI": "> 100 µM"
  },
  {
    "compound": "S=c1ssc(Sc2ccccn2)c1Cl",
    "tested-system": "NCI-H460 lung",
    "TGI": "28.5 µM"
  },
  {
    "compound": "CN=C(N)N/N=C(\\C)c1ccc2oc3ccc(/C(C)=N/NC(N)=NC)cc3c2c1",
    "tested-system": "NCI-H460 lung",
    "TGI": "> 100 µM"
  }
]

Which TGI value belongs to N#Cc1c2c([nH]c(=O)c1C#N)CCCC2 ?
> 100 µM

Input O=C(NCCNCCO)N/N=C/c1ccc([N+](=O)[O-])cc1
> 100 µM

And the next one, O=Cc1cc2c(o1)C(=O)c1ccccc1C2=O ?
2.39 µM

Then what about the compound COC(=O)c1cc(-c2c[nH]cc2C(=O)OCc2ccccc2)cn1S(=O)(=O)c1ccc(C)cc1 ?
> 100 µM

Likewise for CN(C)C(=O)C1CCC(=C2C(=O)OC(C)(C)OC2=O)N1C (stereo unspecified) ?
> 100 µM

Next: CC(Oc1ccc(OCC2CCCCC2)cc1)C(=O)N(CCO)CCO (stereo unspecified)
> 100 µM

----------
Each entry below carries its reported TGI.
test system: HOP-18 NSCLC; test: NCI tumour cell line growth inhibition, 48 h

[
  {
    "compound": "CN(C)c1ccc(N=Nc2c([O-])ccc3ccccc23)cc1.[C-]#[O+].[C-]#[O+].[Ir]",
    "result": "37.2 µM"
  },
  {
    "compound": "CC(CCc1ccc2c(c1)c(=N)c1ccc(N)cc1n2O)CC(C)(C)C (stereo not drawn)",
    "result": "3.35 µM"
  },
  {
    "compound": "CCOC(=O)N1C2C=C(C)C(C3C(C)C(=O)N31)N(C(=O)c1ccccc1)O2 (stereo not drawn)",
    "result": "> 100 µM"
  },
  {
    "compound": "FC(F)(F)c1ccc2nc(Nc3ccc(Cl)c(Cl)c3)c(-c3ccccc3)nc2c1",
    "result": "> 100 µM"
  }
]

Which value of TGI has been reported for CC(=O)NC(CCCN(Cc1ccccc1)C(=O)N(CCCl)N=O)C(=O)NCc1ccccc1 (stereo not drawn) in the records?
> 100 µM

// repeat for CCO[C@@H]1C2C=CC(C2)[C@H]1[N+](=O)[O-] (stereo partly drawn) and report
> 100 µM

Would you kindly repeat that for OC(c1ccccc1)(c1ccccc1)c1cccnc1 ?
> 100 µM

How about this compound: CN(C)CCNC(=O)c1ccc(Cl)c2c(Nc3ccc(S(N)(=O)=O)cc3)c3ccccc3nc12
5.92 µM

----------
tested on: MALME-3M melanoma; assay: NCI tumour cell line growth inhibition, 48 h; in the data active = GI50 below about 0.43 µM; inactive = the rest
Give one outcome, nothing more. List: active, inactive

[
  {
    "compound": "COc1cc2cc(Oc3ccc(NC(=O)c4ccc(Cl)c(C(F)(F)F)c4)cc3)c(C)nc2cc1OC",
    "category-label": "inactive"
  },
  {
    "compound": "Nc1nc(Nc2cccc(F)c2)nc2ccccc12",
    "category-label": "inactive"
  },
  {
    "compound": "NCc1ccc(-n2c(-c3nonc3N)nc3cnccc32)cc1",
    "category-label": "inactive"
  },
  {
    "compound": "COc1ccc(/C=C2\\CCCC3=C2NC(C)=NC3c2ccc(OC)c(OC)c2)cc1OC (centres undefined)",
    "category-label": "inactive"
  },
  {
    "compound": "COc1ccccc1-c1c(C)nn2c(NCc3ccccn3)cc(C)nc12",
    "category-label": "inactive"
  },
  {
    "compound": "Fc1ccc(Nc2nccc(-c3c(-c4ccc(C(F)(F)F)cc4)nn4ncccc34)n2)cc1F",
    "category-label": "inactive"
  },
  {
    "compound": "CC(=O)OC1C2(CC3N4C(=O)C5(CO)SSC4(CC31O)C(=O)N5C)OC(C)C(C)(C)C2=O (centres undefined)",
    "category-label": "active"
  },
  {
    "compound": "COc1cc(/C=C(/c2ccccc2)[N+](=O)[O-])c(OC)c2c1OCO2",
    "category-label": "inactive"
  }
]

What is the recorded call for this compound in the test? C[C@H](CS(C)(=O)=O)Nc1ncc2cc(Oc3ccc(F)cc3F)c(=O)n(C)c2n1
inactive

----------
system: SN12C renal; assay: NCI tumour cell line growth inhibition, 48 h
Label rule, in plain words: TGI of 30 µM and up is YES, under 30 µM is NO.

These solved cases illustrate the format of a correct answer.
[
  {
    "compound": "Nc1nc(Nc2cccc(F)c2)nc2ccccc12",
    "category-label": "YES"
  },
  {
    "compound": "O=C1c2ccccc2C(=O)C1C(c1ccc([N+](=O)[O-])cc1)C1C(=O)c2ccccc2C1=O",
    "category-label": "YES"
  },
  {
    "compound": "CCC1CN2CCc3cc(OC)c(OC)cc3C2CC1CC1c2cc(OC)c(OC)cc2CCN1C(=O)CNC(=O)OC(C)(C)C (stereo not drawn)",
    "category-label": "YES"
  },
  {
    "compound": "Cc1cc(N2CCCC2)nc(N(CCCNc2ccnc3cc(Cl)ccc23)Cc2ccc3c(c2)OCO3)n1",
    "category-label": "NO"
  }
]

Record O=c1cccccc1NCCCCCCCCCNc1cccccc1=O ; criterion: TGI no lower than 30 µM. Met?
YES

Now this one: S=c1ssc(Sc2ccccn2)c1Cl
NO

----------
test system: PC-3 prostate; test: NCI tumour cell line growth inhibition, 48 h; in the data active = GI50 below about 0.43 µM; inactive = the rest
One label from this list, please: 1 (active), 0 (inactive)

[
  {
    "molecule": "NCc1ccc(-n2c(-c3nonc3N)nc3cnccc32)cc1",
    "category-label": 0
  },
  {
    "molecule": "COc1ccc2c(c1)C(=O)c1c-2n(CCCN2CCOCC2)c(=O)c2ccccc12",
    "category-label": 0
  },
  {
    "molecule": "CCOC(=O)N1CCN(S(=O)(=O)c2oc(-c3ccc(Cl)cc3)nc2C#N)CC1",
    "category-label": 0
  },
  {
    "molecule": "O=c1[nH]cnc2c(C3OC(CO)C(O)C3O)scc12 (centres undefined)",
    "category-label": 0
  },
  {
    "molecule": "CC[CH2][Pb]([CH2]CC)([CH2]CC)[NH]S(=O)(=O)c1ccc(C)cc1",
    "category-label": 1
  }
]

Tell me the assay call for COC(=O)[C@@H]1CCCN1C(=O)[C@@H]1CCCN1C(=O)[C@@H](Cc1c[nH]c2ccccc12)NC(=S)Nc1cc(C(F)(F)F)cc(C(F)(F)F)c1 please.
0

Could you do the same for Cc1ccc2c(c1)ncn2-c1ncnc2c1CC(C)c1ccccc1N2C (centres undefined) , please?
1

Next molecule up: COc1ccc(-c2ccc(/C=N/n3c(COc4ccc(Cl)cc4)n[nH]c3=S)o2)c([N+](=O)[O-])c1
0

Please answer likewise for Cn1cc(-c2ccc(CNc3cc(-c4cnc5cc(OCCCN6CCCC6)ccn45)ncn3)cc2)cn1
0

----------
system: TK-10 renal; experiment: NCI tumour cell line growth inhibition, 48 h
Here the recorded TGI is given for each entry.

What measured TGI goes with Cc1ccc(C(=O)C#Cc2cn(C3CC(O)C(CO)O3)c(=O)[nH]c2=O)cc1 (stereo not given) ?
> 100 µM

Follow-up entry: CC1CC/C(=C\c2ccc(N(C)C)cc2)C(=O)/C1=C/c1ccc(N(C)C)cc1 (stereo not given)
> 100 µM

COc1ccc2c(c1)nc(N)c1c3cccnc3cn21 ?
19.9 µM

Follow-up entry: Clc1ncnc2c1nc(C#Cc1ccccc1)n2Cc1ccccc1
> 100 µM

And CCN1C(=O)N(CC)C2C1NN=c1s/c(=C3\C(=O)N(C)c4ccccc43)c(=O)n12 (stereo not given) ?
> 74.3 µM

----------
tested on: ACHN renal; test: NCI tumour cell line growth inhibition, 48 h
measurement-kind: GI50

[
  {
    "item-smiles": "Cn1cc(-c2ccc(CNc3cc(-c4cnc5cc(OCCCN6CCCC6)ccn45)ncn3)cc2)cn1",
    "GI50": "1.78 µM"
  }
]

// query GI50 value for entry Clc1ccc2nc(Oc3ccccc3)cnc2c1
> 100 µM

Another compound to look at: Fc1ccc(Nc2nccc(-c3c(-c4ccc(C(F)(F)F)cc4)nn4ncccc34)n2)cc1F
> 25 µM

Same thing, different compound: Nc1nc(Nc2cccc(F)c2)nc2ccccc12
20.4 µM
